Assayed system: T1, mouse VSTM5 (SEQ ID NO:11) expressed on HEK-293T cells (mouse, UniProt Q9D806 28-199)
T1 construct: also called mouse VSTM5 untagged
T1 sequence: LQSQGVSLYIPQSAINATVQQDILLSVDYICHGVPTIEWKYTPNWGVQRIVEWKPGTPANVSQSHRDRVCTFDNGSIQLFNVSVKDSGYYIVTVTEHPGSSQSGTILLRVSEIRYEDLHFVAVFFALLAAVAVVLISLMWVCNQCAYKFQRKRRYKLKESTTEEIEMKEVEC
Assay details: FACS titration on 293-muVSTM5 cells, panel 'Ab binding vs. mouse VSTM5'
Endpoint name: binding result

INSERT INTO results (binder, measured) VALUES
  ('49-01.F01 (antibody, V domains shown) VH: EVQLVESGGGVVKPGESLRLLCTASGLSFNKYSINWVRQAPGGGLEWVSSIESGSGHIYYADSLEGRFTISRDNAKNSVTLEMNSLRVEDTALYYCVSGPEDKWLLQLYFESWGQGTLVTVSS VL: EIVLTQSPATLSLSPGERATLSCRTSQSSPSDNLAWYQHKPGQAPRLLIYGGSNRATGIPARFSGSGSGTDFTLTISSLEPEDFAVYYCQQYGSSPLTFGGGTKVDIKR', 'no binding'),
  ('50-01.E02 (antibody, V domains shown) VH: QVQLVESGGGVVQPGGSLKLSCVASGFTFSAYAMNWVRLVPGKGLEWVSGISGNGYSTFYPDSVQGRFTVSRDNSKNTLFLQIDRLTGGDTAIYYCAKVQTTVITPFQNWGQGTLVTVSS VL: EIVLTQSPGTLSLSPGERATLSCRASQNIGSNFLAWYQQKPGQAPRLLIYGASTRANGIPDRFSGSKSETDFTLTISRLEPEDFAVYYCQQYDNSPYTFGQGTKLEIKR', 'no binding');
